# IC50 against Dual specificity protein kinase CLK2 (Homo sapiens), merged from multiple literature sources
IC50 under 3 nM gets label 1, anything at or over 3 nM gets label 0.

Inquiry: In the record for `CCOc1nn(CC(C)(C)O)c2c1/C=C/c1n[nH]c3ccc(cc13)-c1cnn(C)c1O[C@@H](C)CN(CC)C2` , is IC50 less than 3 nM?
Reply text: label 0

Inquiry: In the record for C[C@H]1CN(C)Cc2c(c(OC3CC(S(C)(=O)=O)C3)nn2C)/C=C/c2n[nH]c3ccc(cc23)-c2cnn(C)c2O1 (stereo partly drawn) , is IC50 less than 3 nM?
Reply text: label 1

Inquiry: In the record for `C[C@H]1CN(C)Cc2c(c(OCC#N)nn2CCO)/C=C/c2n[nH]c3ccc(cc23)-c2cnn(C)c2O1` , is IC50 less than 3 nM?
Reply text: label 1

Inquiry: In the record for `CCOc1nn(CCO)c2c1/C=C/c1n[nH]c3ccc(cc13)-c1cnn(C)c1O[C@@H](C)CN(C)C2` , is IC50 less than 3 nM?
Reply text: label 1

Inquiry: In the record for `Cn1nc(C#N)c2c1COCCOc1c(cnn1C)-c1ccc3[nH]nc(c3c1)/C=C/2` , is IC50 less than 3 nM?
Reply text: label 0

Inquiry: In the record for `CCN1Cc2c(c(OC(C)C)nn2[C@@H](C)CO)/C=C/c2n[nH]c3cc(F)c(cc23)-c2cnn(C)c2O[C@@H](C)C1` , is IC50 less than 3 nM?
Reply text: label 0

Inquiry: In the record for `CC(C)Oc1nn(CCO)c2c1/C=C/c1n[nH]c3ccc(cc13)-c1cnn(C)c1O[C@@H](C)CN(C)[C@H]2C` , is IC50 less than 3 nM?
Reply text: label 1

Inquiry: In the record for `CCc1nn(C)c2c1/C=C/c1n[nH]c3ccc(cc13)-c1cnn(C)c1OCCOC2` , is IC50 less than 3 nM?
Reply text: label 0

Inquiry: In the record for `CCn1ncc2c1O[C@@H](C)CN(C)Cc1c(c(OC(C)C)nn1CCO)/C=C/c1n[nH]c3ccc-2cc13` , is IC50 less than 3 nM?
Reply text: label 1

Inquiry: In the record for `CC(C)Oc1nn(CCO)c2c1/C=C/c1n[nH]c3cc(F)c(cc13)-c1cnn(C)c1O[C@@H](C)CN(C)C2` , is IC50 less than 3 nM?
Reply text: label 1

Inquiry: In the record for `CN1Cc2cnc(Nc3ccn(C4CCNCC4)n3)cc2N(C)c2ccccc21` , is IC50 less than 3 nM?
Reply text: label 0

Inquiry: In the record for `CC(C)Oc1nn(CCO)c2c1/C=C/c1n[nH]c3ccc(cc13)-c1cnn(C3CC3)c1O[C@@H](C)CN(C)C2` , is IC50 less than 3 nM?
Reply text: label 1

Inquiry: In the record for `CCOc1nn(C)c2c1/C=C/c1n[nH]c3cc(F)c(cc13)-c1cnn(C)c1O[C@@H](C)CN(CC)C2` , is IC50 less than 3 nM?
Reply text: label 1

Inquiry: In the record for `CCCn1/c(=N/C(=O)c2cccc(C(N)=O)c2)[nH]c2ccccc21` , is IC50 less than 3 nM?
Reply text: label 0

Inquiry: In the record for `CC(C)c1noc2c1/C=C/c1n[nH]c3ccc(cc13)-c1cnn(C)c1O[C@@H](C)CN(C)C2` , is IC50 less than 3 nM?
Reply text: label 0
